system: SNB-19 CNS; experiment: NCI tumour cell line growth inhibition, 48 h
metric-name: TGI

Below, each entry is followed by its recorded TGI result.
INSERT INTO results (compound, metric_name, observed_value) VALUES
  ('CC1=NN(c2nc(N)nc(CBr)n2)C(C)(C)C1', 'TGI', '36.6 µM'),
  ('Nc1c(C(=O)c2ccc(-c3cccnc3)cc2)cnn1-c1ccc(F)cc1', 'TGI', '> 25 µM'),
  ('OC(c1cc(-c2cccc(Cl)c2)nc2ccccc12)C1CCCCN1 (stereo not given)', 'TGI', '3.95 µM'),
  ('Cc1ccc(S(=O)(=O)CN2C(=O)C(c3ccccc3)(c3ccccc3)C23OC(c2ccc(Cl)cc2)=CC3=O)cc1 (stereo not given)', 'TGI', '> 10 µM'),
  ('C=CCc1[nH]c2c(OCc3ccccc3)cc(N(CC=C)C(C)=O)cc2c1C', 'TGI', '25.3 µM');

Item: `CC1(C)N=C(N)N=C(N)N1c1ccc(CCCCc2ccccc2)c(Cl)c1` | TGI: > 35.9 µM

TGI reported for this compound NC(CSCc1ccc(I)cc1)C(=O)O (stereo not given) : > 100 µM

Quick note, TGI for `CC(=O)Nc1ccc(/C=c2\sc3nnc(CCC(=O)Nc4ccccc4Cl)n3c2=O)cc1` landed at > 100 µM

Lab note: measured TGI of `Nc1ccccc1NC(=O)c1ccc(CNc2nccc(-c3cccnc3)n2)cc1` was > 100 µM

Entry `CC1=NN(C(=O)c2ccccc2O)C(=O)/C1=C/c1cccc(O)c1` ; TGI = > 100 µM

###

TGI: recorded values
system: MOLT-4 leukemia; assay: NCI tumour cell line growth inhibition, 48 h

For orientation, consider the following solved cases.
INSERT INTO results (compound, observed_value) VALUES
  ('C[C@]12CCc3nc(Nc4cccc(O)c4)sc3C1=CC[C@@H]1[C@@H]2CC[C@]2(C)/C(=N\NC(N)=S)CC[C@@H]12', '6.9 µM'),
  ('C=C=C(C(=O)OC)S(=O)c1ccccc1[N+](=O)[O-] (stereo unspecified)', '> 100 µM'),
  ('CCN1CCCC(C#N)(c2ccccc2)CC1 (stereo unspecified)', '> 100 µM'),
  ('CCOc1ccc2nc3nc(=O)[nH]c(C)c3c(NCCCN(CC)CC)c2c1', '> 100 µM'),
  ('Clc1c(Cl)c(Cl)c2c(nnn2C2CCCO2)c1Cl (stereo unspecified)', '46.3 µM');

Proceeding to the next compound to report its TGI.
Documented TGI of `CC(C)N1CC2CN(Cc3ccccc3)CC(C1)C2=O` : > 100 µM

###

Each entry below lists one item and its recorded TGI value.
tested on: PC-3 prostate; assay: NCI tumour cell line growth inhibition, 48 h
Numbers only; they are read as µM.

INSERT INTO assay_data (compound, observed_value) VALUES
  ('C[C@]12CC[C@@H]3c4cc(OC(F)F)c(O)cc4CC[C@H]3[C@@H]1CC[C@@H]2OS(N)(=O)=O', 97.6),
  ('COC1C(CO)OC(n2c3ccccc3c3c4c(c5c6ccccc6[nH]c5c32)C(=O)NC4=O)C(O)C1O (stereo not given)', 7.06),
  ('NCCCNc1nc2ccccc2c2c(=O)c3cc(F)cc(F)c3sc12', 3.24);

Turning now to a further record.
Test item `CC1(C)N=C(N)N=C(N)N1c1ccc(CCCCc2ccccc2)c(Cl)c1` ; PC-3 prostate; reported TGI was 6.88

###

system: SF-295 CNS; assay: NCI tumour cell line growth inhibition, 48 h
metric-name: TGI (µM)
# output: bare number, implied unit µM

INSERT INTO assay_data (molecule, observed_value) VALUES
  ('OC(c1cc(-c2cccc(Cl)c2)nc2ccccc12)C1CCCCN1 (stereo not given)', 3.22);

Memo: `CC(=O)Nc1ccc(/C=c2\sc3nnc(CCC(=O)Nc4ccccc4Cl)n3c2=O)cc1` , reported TGI: 38.9

Field TGI (entry NS(=O)(=O)OCC1OC(n2cnc3cncnc32)C(O)C1O (stereo not given) ) reads 0.12

molecule COC1C(CO)OC(n2c3ccccc3c3c4c(c5c6ccccc6[nH]c5c32)C(=O)NC4=O)C(O)C1O (stereo not given) , TGI observed: 0.673

###

tested on: SNB-19 CNS; assay: NCI tumour cell line growth inhibition, 48 h; in the data active = GI50 below about 0.43 µM; inactive = the rest
The reply should be one of these categories: 1 (yes) for active, 0 (no) for inactive

Solved cases (3 shown):
INSERT INTO measurements (compound, target_or_system, category_label) VALUES
  ('CCOC(=O)c1ccccc1OC(=O)NNc1ccccc1', 'SNB-19 CNS', '0 (no)'),
  ('O=C(/C=C/c1ccco1)c1cc(F)c(Cl)cc1Cl', 'SNB-19 CNS', '0 (no)'),
  ('Cn1cc(C2=C(c3ccccc3[N+](=O)[O-])C(=O)NC2=O)c2ccccc21', 'SNB-19 CNS', '0 (no)');

Each compound tested received a call. Report the one for `CC[C@H](NC(=O)[C@H]1CCCCN1C)C(=O)N(C)[C@H](C[C@@H](OC(C)=O)c1nc(C(=O)N[C@@H](Cc2ccccc2)C[C@H](C)C(=O)O)cs1)C(C)C` .
1 (yes)

Which outcome did this test record for the compound `CCC(CC)c1nc(Nc2ccc(C(=O)OC)cc2)c2ccccc2n1` ?
0 (no)

How was `O=c1cc(-c2ccccc2)oc2ccc(OC/C(=N/O)c3ccccc3)cc12` classified in this test?
0 (no)

I would be grateful if you could indicate the recorded call for `COc1cc([C@@H]2c3cc4c(c(O)c3C[C@H]3COC(=O)[C@@H]32)OCO4)cc(OC)c1OC` .
1 (yes)

What did the test return for `C[n+]1c(/C=C/c2c[nH]c3ccccc23)ccc2ccccc21` ?
0 (no)

###

test system: ACHN renal; assay: NCI tumour cell line growth inhibition, 48 h
metric-name: TGI

INSERT INTO measurements (compound, metric_name, observed_value) VALUES
  ('OC(c1cc(-c2cccc(Cl)c2)nc2ccccc12)C1CCCCN1 (stereo not given)', 'TGI', '3.13 µM'),
  ('CCN(CC)C(=O)Cn1c(-c2ccccc2)cc2ccccc21', 'TGI', '> 100 µM'),
  ('O=C(c1ccco1)c1nc2cc(C(F)(F)F)ccc2nc1C(F)(F)F', 'TGI', '> 100 µM'),
  ('CC(=O)OCC(OC(C)=O)C(OC(C)=O)C(/C=N\Nc1nc2ccccc2c(=O)[nH]1)=N\Nc1nc2ccccc2c(=O)[nH]1 (stereo not given)', 'TGI', '> 100 µM');

Proceed to the following item.
Memo: `C[C@]12CCc3nc(Nc4cccc(O)c4)sc3C1=CC[C@@H]1[C@@H]2CC[C@]2(C)/C(=N\NC(N)=S)CC[C@@H]12` , reported TGI: 6 µM

###

system: MOLT-4 leukemia; experiment: NCI tumour cell line growth inhibition, 48 h; in the data active = GI50 below about 0.43 µM; inactive = the rest
Reply using exactly one outcome from active, inactive

Below, 5 molecules whose answers are already recorded.
INSERT INTO assay_data (molecule, category_label) VALUES
  ('CN1CCC(COc2cnc(-c3cccc(Cn4nc(-c5cccc(C#N)c5)ccc4=O)c3)nc2)CC1', 'inactive'),
  ('Cc1cc(Nc2ccc(OCc3ccccc3)cc2)nc2cc(O)ccc12', 'inactive'),
  ('O=C(c1ccco1)c1nc2cc(C(F)(F)F)ccc2nc1C(F)(F)F', 'inactive'),
  ('CCOC(=O)C1=C(C)N=c2s/c(=C\c3ccccc3O)c(=O)n2C1c1ccc(OC)c2ccccc12 (stereo unspecified)', 'inactive'),
  ('COc1ccc(N=Cc2c(O)ccc3c2oc2cc(Cl)c(O)c(Cl)c23)cc1', 'inactive');

Let us examine a further case.
What classification did CCCCCCCC/C=C/CCCCCCCC1=NC(C)(C)CN1CC(C)O (stereo unspecified) end up with in this test?
inactive

###

tested on: SN12C renal; experiment: NCI tumour cell line growth inhibition, 48 h
Examples of compounds with documented TGI follow.
The answer is to be given in µM; state only the numeric part.

INSERT INTO results (compound, metric_name, observed_value) VALUES
  ('CCOc1ccc(N/C(=C(/C(Cl)=C(/Cl)Nc2ccccc2)[N+](=O)[O-])n2nnc3ccccc32)cc1', 'TGI', 47.2);

In the following, a different compound is considered.
Entry O=C1c2[nH]cc(CNC3CN4CCC3CC4)c2C(=O)c2c1c(O)c1ccccc1c2O (stereo not given) ; TGI = 15.5

###

test system: NCI-H522 lung; assay: NCI tumour cell line growth inhibition, 48 h
metric-name: log10 TGI (log10 of the value in µM)
The base-10 logarithm of TGI, taken with TGI in µM, is what appears here.

Some solved entries appear below for comparison.
INSERT INTO assay_data (compound, observed_value) VALUES
  ('CCCCCCCC/C=C/CCCCCCCC1=NC(C)(C)CN1CC(C)O (configuration not stated)', 0.64),
  ('C[n+]1c(/C=C/c2c[nH]c3ccccc23)ccc2ccccc21', 1.41),
  ('Cc1[nH]c(=O)nc2c1C(NCCCN(C)C)c1cc(Cl)ccc1N2 (configuration not stated)', 1.45),
  ('Clc1ccc(Nc2nnc(CCCCCCCCc3nnc(Nc4ccc(Cl)cc4)o3)o2)cc1', 1.86),
  ('CSC1=Nc2c(c(C)c(-c3ccccc3)n2CCCN2CCCCC2)C2=NC(=O)C[C@H](C)N12', 0.99),
  ('COc1cc2nccc(Oc3ccc(NC(=O)NC4CC4)c(Cl)c3)c2cc1C(N)=O', 1.45);

Record for `COc1ccc2sc3cccc(NCCN(C)C)c3c(=O)c2c1` under target or system NCI-H522 lung: log10 TGI reported as 1.00

Hey, NCI-H522 lung data for O=P1(Oc2ccccc2)N=P(c2ccccc2)(c2ccccc2)C=C(c2ccc(Cl)cc2)N1 (configuration not stated) : log10 TGI came out at 1.38

Summary line: `CN(C)CCNc1nc2ccccc2c2c1CCCC2` , NCI-H522 lung, reported log10 TGI = 1.52

The recorded log10 TGI with NCI-H522 lung for `CCC(CC)c1nc(Nc2ccc(C(=O)OC)cc2)c2ccccc2n1` was 1.26

Short answer on NCI-H522 lung for CC[C@@H]1[C@@H](C)O[C@@](O)([C@@H](C)[C@H](O)[C@H](C)[C@H]2OC(=O)/C=C/C=C/[C@H](C)[C@@H]([C@@H](C)[C@@H](O)[C@H](C)[C@@]3(O)C[C@@H](O[C@H]4C[C@@H](O)[C@H](O)C(C)O4)[C@H](CC)[C@@H](C)O3)OC(=O)/C=C/C=C/[C@@H]2C)C[C@H]1O[C@@H]1C[C@@H](O)[C@H](O)C(C)O1 (some centres not stated) , log10 TGI: -0.52

Value sought: log10 TGI, system NCI-H522 lung, item CCOC(=O)C1SC(=Nc2cccc(Cl)c2C)N=C1C (configuration not stated) . Result: 1.55

Item `NC1=CC(=O)c2cccnc2C1=O` ; assay system NCI-H522 lung; log10 TGI reported as 0.34

Known value: NCI-H522 lung log10 TGI of the compound `CC[C@H](NC(=O)[C@H]1CCCCN1C)C(=O)N(C)[C@H](C[C@@H](OC(C)=O)c1nc(C(=O)N[C@@H](Cc2ccccc2)C[C@H](C)C(=O)O)cs1)C(C)C` equals -0.47

Known value: NCI-H522 lung log10 TGI of the compound CN(C)CCCC1c2ccccc2Oc2ccc(C(F)(F)F)cc21 (configuration not stated) equals 1.47

These entries and their values trace back to PubChem BioAssay (NCI).
